Where a name gives a salt, the structure may show the parent alone.
Reported Metric: melting point

Notebook: COc1ccccc1N1CCN(CCN(Cc2cccc3ccccc23)C(=O)C2CCCCC2)CC1 (as salt: fumarate) [Compound 4] , melting point read as 204 to 206 °C

Notebook: COc1ccccc1N1CCN(CCNC(=O)CCc2ccccc2)CC1 (as salt: fumaric acid salt) [Compound 7] , melting point read as 107 to 108 °C

New cases:
Notebook: COc1ccccc1N1CCN(CCNC(=O)c2ccccc2)CC1 (as salt: fumaric acid salt) [Compound 1] , melting point read as 136 to 138 °C

Notebook: COc1ccccc1N1CCN(CCN(Cc2ccccc2)C(=O)C2CCCCC2)CC1 (as salt: fumarate) [Compound 2] , melting point read as 144 to 146 °C

Notebook: COc1ccccc1N1CCN(CCN(CCCc2ccccc2)C(=O)C2CCCCC2)CC1 (as salt: fumarate) [Compound 8] , melting point read as 103 to 105 °C

###

Target protein (sequence): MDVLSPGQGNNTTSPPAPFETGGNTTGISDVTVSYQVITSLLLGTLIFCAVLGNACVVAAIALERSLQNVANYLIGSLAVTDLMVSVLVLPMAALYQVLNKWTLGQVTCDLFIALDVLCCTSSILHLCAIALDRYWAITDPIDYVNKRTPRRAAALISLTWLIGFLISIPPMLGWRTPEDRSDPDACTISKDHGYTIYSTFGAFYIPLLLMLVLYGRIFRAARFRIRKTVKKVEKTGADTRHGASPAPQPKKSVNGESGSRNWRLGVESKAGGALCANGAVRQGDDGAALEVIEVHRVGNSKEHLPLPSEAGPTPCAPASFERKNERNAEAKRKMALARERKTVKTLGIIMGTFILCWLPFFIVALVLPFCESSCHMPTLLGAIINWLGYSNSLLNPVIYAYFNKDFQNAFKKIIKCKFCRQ
Reported Metric: Ki

Notebook: `COc1ccccc1N1CCN(CCN(CCCc2ccccc2)C(=O)C2CCCCC2)CC1` , Ki read as 20 nM

Read the next record carefully.
Notebook: `COc1ccccc1N1CCN(CCN(Cc2ccc3ccccc3c2)C(=O)C2CCCCC2)CC1` , Ki read as 1.2 nM

###

Target Desc: human 5HT1A receptor (Homo sapiens)
Construct: expressed in transfected cells; host or cells: CHO cells (stably transfected)
Procedure Details: 5-HT1A Receptor Intrinsic Activity Assay (reversal of forskolin-stimulated cAMP)
Type: cell-based
Condition Notes: agonist activity, cAMP, forskolin-stimulated CHO cells with human 5-HT1A receptor
# reported Emax; entries follow
Use % as the unit, but write only the number.

Solved cases below.
Notebook: `COc1ccccc1N1CCN(CCN(Cc2ccccc2)C(=O)C2CCCCC2)CC1` , Emax read as 36

Notebook: `COc1ccccc1N1CCN(CCN(CCCc2ccccc2)C(=O)C2CCCCC2)CC1` , Emax read as 77

Notebook: `COc1ccccc1N1CCN(CCN(Cc2cccc3ccccc23)C(=O)C2CCCCC2)CC1` , Emax read as 88

Read the next record carefully.
Notebook: `COc1ccccc1N1CCN(CCN(Cc2ccc3ccccc3c2)C(=O)C2CCCCC2)CC1` , Emax read as 0

###

Target Desc: human 5HT1A receptor (Homo sapiens, UniProt P08908)
Procedure Details: 5-HT1A Receptor Intrinsic Activity Assay (reversal of forskolin-stimulated cAMP)
Condition Notes: antagonist mode, reversal of agonist induced activity, preincubated 20 minutes before agonist and forskolin
Reported Metric: pIC50
Friendly reminder that pIC50 comes from taking -log10 of the concentration in mol/L.

Notebook: `COc1ccccc1N1CCN(CCN(Cc2ccc3ccccc3c2)C(=O)C2CCCCC2)CC1` , pIC50 read as 7.62
